test system: Stomach; assay: Drug uptake in ICR mouse stomach assessed per organ at 370 kBq/100 ul, iv at 10 mins by gamma-counting analysis; format: ADME, organism-based; conditions: in vivo
ATTRIBUTE MEASURED: Drug uptake (%ID)

Worked examples, 4 molecules total:
STRUCTURE AS SMILES	Drug uptake / %ID
CNc1ccc(-c2nc3ccc(OCCOCCOCC[18F])cc3s2)cn1	9.44
CN(C)c1ccc(-c2nc3ccc(OCCOCCOCC[18F])cc3s2)cn1	8.98
CN(C)c1ccc(-c2nc3cc(OCCOCCOCC[18F])ccc3o2)cn1	5.1
CNc1ccc(-c2nc3ccc(OCC[18F])cc3s2)cn1	5.61

1 = CNc1ccc(-c2nc3cc(OCC[18F])ccc3o2)cn1
2 = CNc1ccc(-c2nc3cc(OCCOCCOCC[18F])ccc3o2)cn1
3 = CN(C)c1ccc(-c2nc3cc(OCC[18F])ccc3o2)cn1
Sort low-to-high on Drug uptake, please. Field: ranking. Enter the labels in the order requested.
3, 1, 2
(3: 2.55 %ID, 1: 5.59 %ID, 2: 12.32 %ID)

---

system: Stomach; experiment: Drug uptake in ICR mouse stomach assessed per organ at 370 kBq/100 ul, iv at 30 mins by gamma-counting analysis; assay type: ADME, organism-based; settings: in vivo, 0.5 h
ATTRIBUTE MEASURED: Drug uptake (%ID)

Worked examples, 3 molecules total:
STRUCTURE AS SMILES	DISPLAY UNIT	NUMERIC RESULT
CN(C)c1ccc(-c2nc3cc(OCCOCCOCC[18F])ccc3o2)cn1	%ID	9.26
CNc1ccc(-c2nc3ccc(OCCOCCOCC[18F])cc3s2)cn1	%ID	11.46
CN(C)c1ccc(-c2nc3ccc(OCCOCCOCC[18F])cc3s2)cn1	%ID	14.13

a = CN(C)c1ccc(-c2nc3cc(OCC[18F])ccc3o2)cn1
b = CNc1ccc(-c2nc3ccc(OCC[18F])cc3s2)cn1
Of a versus b , which is the one with smaller reported Drug uptake? Answer by stating the label of the chosen item.
a

1 = CNc1ccc(-c2nc3cc(OCC[18F])ccc3o2)cn1
2 = CNc1ccc(-c2nc3cc(OCCOCCOCC[18F])ccc3o2)cn1
Of 1 versus 2 , which is the one with smaller reported Drug uptake? Answer by stating the label of the chosen item.
1
(1: 3.11 %ID, 2: 12.93 %ID)

---

tested on: Blood; assay: Drug uptake in ICR mouse blood at 370 kBq/100 ul, iv at 30 mins by gamma-counting analysis; format: ADME, organism-based; conditions: in vivo, 0.5 h
ATTRIBUTE MEASURED: Drug uptake (% ID/g)

Worked examples, 4 molecules total:
STRUCTURE AS SMILES	Drug uptake / % ID/g
CNc1ccc(-c2nc3ccc(OCCOCCOCC[18F])cc3s2)cn1	3.49
CN(C)c1ccc(-c2nc3cc(OCCOCCOCC[18F])ccc3o2)cn1	2.74
CNc1ccc(-c2nc3cc(OCC[18F])ccc3o2)cn1	2.55
CNc1ccc(-c2nc3ccc(OCC[18F])cc3s2)cn1	4.45

1 = CNc1ccc(-c2nc3cc(OCCOCCOCC[18F])ccc3o2)cn1
2 = CN(C)c1ccc(-c2nc3ccc(OCCOCCOCC[18F])cc3s2)cn1
3 = CN(C)c1ccc(-c2nc3cc(OCC[18F])ccc3o2)cn1
Sort low-to-high on Drug uptake, please. Field: ranking. Enter the labels in the order requested.
3, 1, 2
(3: 1.89 % ID/g, 1: 3.16 % ID/g, 2: 4.96 % ID/g)

---

test system: Heart; experiment: Drug uptake in ICR mouse heart at 370 kBq/100 ul, iv at 60 mins by gamma-counting analysis; assay type: ADME, organism-based; settings: in vivo, 1 h
ATTRIBUTE MEASURED: Drug uptake (% ID/g)

STRUCTURE AS SMILES	NUMERIC RESULT
CNc1ccc(-c2nc3cc(OCCOCCOCC[18F])ccc3o2)cn1	2.5
CNc1ccc(-c2nc3ccc(OCCOCCOCC[18F])cc3s2)cn1	1.85
CN(C)c1ccc(-c2nc3cc(OCCOCCOCC[18F])ccc3o2)cn1	2.73

I = CNc1ccc(-c2nc3cc(OCC[18F])ccc3o2)cn1
II = CNc1ccc(-c2nc3ccc(OCC[18F])cc3s2)cn1
Of I versus II , which is the one with smaller reported Drug uptake? Answer by stating the label of the chosen item.
I
(I: 2.05 % ID/g, II: 3.7 % ID/g)

---

test system: Bone; assay: Drug uptake in ICR mouse bone at 370 kBq/100 ul, iv at 2 mins by gamma-counting analysis; format: ADME, organism-based, Bone element; conditions: in vivo
ATTRIBUTE MEASURED: Drug uptake (% ID/g)

Worked examples, 5 compounds total:
STRUCTURE AS SMILES	Drug uptake, % ID/g
CN(C)c1ccc(-c2nc3ccc(OCCOCCOCC[18F])cc3s2)cn1	1.86
CNc1ccc(-c2nc3cc(OCC[18F])ccc3o2)cn1	1.18
CN(C)c1ccc(-c2nc3cc(OCCOCCOCC[18F])ccc3o2)cn1	1.79
CNc1ccc(-c2nc3ccc(OCC[18F])cc3s2)cn1	2.04
CN(C)c1ccc(-c2nc3cc(OCC[18F])ccc3o2)cn1	2.08

1 = CNc1ccc(-c2nc3cc(OCCOCCOCC[18F])ccc3o2)cn1
2 = CNc1ccc(-c2nc3ccc(OCCOCCOCC[18F])cc3s2)cn1
Of 1 versus 2 , which is the one with smaller reported Drug uptake? Answer by stating the label of the chosen item.
2
(2: 1.19 % ID/g, 1: 1.75 % ID/g)

---

system: Heart; assay: Drug uptake in ICR mouse heart at 370 kBq/100 ul, iv at 10 mins by gamma-counting analysis; type: ADME, organism-based; settings: in vivo
ATTRIBUTE MEASURED: Drug uptake (% ID/g)

STRUCTURE AS SMILES	Drug uptake (% ID/g)
CN(C)c1ccc(-c2nc3cc(OCC[18F])ccc3o2)cn1	2.44
CNc1ccc(-c2nc3ccc(OCC[18F])cc3s2)cn1	3.11
CNc1ccc(-c2nc3cc(OCCOCCOCC[18F])ccc3o2)cn1	3.35
CNc1ccc(-c2nc3cc(OCC[18F])ccc3o2)cn1	2.34
CN(C)c1ccc(-c2nc3ccc(OCCOCCOCC[18F])cc3s2)cn1	3.3

I = CN(C)c1ccc(-c2nc3cc(OCCOCCOCC[18F])ccc3o2)cn1
II = CNc1ccc(-c2nc3ccc(OCCOCCOCC[18F])cc3s2)cn1
Of I and II , which one carries the higher reported Drug uptake? Answer by stating the label of the chosen item.
I
(I: 3.51 % ID/g, II: 2.16 % ID/g)

---

tested on: Brain; assay: Drug uptake in ICR mouse brain at 370 kBq/100 ul, iv at 2 mins by gamma-counting analysis; assay type: ADME, organism-based; settings: in vivo
ATTRIBUTE MEASURED: Drug uptake (% ID/g)

STRUCTURE AS SMILES	TARGET	Drug uptake / % ID/g
CNc1ccc(-c2nc3ccc(OCC[18F])cc3s2)cn1	Brain	7.87
CN(C)c1ccc(-c2nc3cc(OCCOCCOCC[18F])ccc3o2)cn1	Brain	3.79
CNc1ccc(-c2nc3cc(OCC[18F])ccc3o2)cn1	Brain	7.23
CNc1ccc(-c2nc3cc(OCCOCCOCC[18F])ccc3o2)cn1	Brain	4.05

P = CN(C)c1ccc(-c2nc3ccc(OCCOCCOCC[18F])cc3s2)cn1
Q = CN(C)c1ccc(-c2nc3cc(OCC[18F])ccc3o2)cn1
R = CNc1ccc(-c2nc3ccc(OCCOCCOCC[18F])cc3s2)cn1
Sort low-to-high on Drug uptake, please. Field: ranking. Enter the labels in the order requested.
R, P, Q

---

tested on: Liver; test: Drug uptake in ICR mouse liver at 370 kBq/100 ul, iv at 10 mins by gamma-counting analysis; type: ADME, organism-based; settings: in vivo
ATTRIBUTE MEASURED: Drug uptake (% ID/g)

STRUCTURE AS SMILES	DISPLAY UNIT	Drug uptake
CN(C)c1ccc(-c2nc3cc(OCCOCCOCC[18F])ccc3o2)cn1	% ID/g	5.41
CN(C)c1ccc(-c2nc3cc(OCC[18F])ccc3o2)cn1	% ID/g	10.72
CNc1ccc(-c2nc3ccc(OCCOCCOCC[18F])cc3s2)cn1	% ID/g	9.38
CNc1ccc(-c2nc3cc(OCCOCCOCC[18F])ccc3o2)cn1	% ID/g	9.32
CN(C)c1ccc(-c2nc3ccc(OCCOCCOCC[18F])cc3s2)cn1	% ID/g	11.6

A = CNc1ccc(-c2nc3ccc(OCC[18F])cc3s2)cn1
B = CNc1ccc(-c2nc3cc(OCC[18F])ccc3o2)cn1
Of A versus B , which is the one with smaller reported Drug uptake? Answer by stating the label of the chosen item.
A
(A: 5.94 % ID/g, B: 8.5 % ID/g)

Source listed as ChEMBL document CHEMBL2177098.
